# Tgt: GAL4 DNA binding domain fused to the PPARγ LBD (Homo sapiens, UniProt P37231)
# Construct: expressed in transfected cells; host or cells: COS-7
# Sequence (P37231 238-503 limits assumed): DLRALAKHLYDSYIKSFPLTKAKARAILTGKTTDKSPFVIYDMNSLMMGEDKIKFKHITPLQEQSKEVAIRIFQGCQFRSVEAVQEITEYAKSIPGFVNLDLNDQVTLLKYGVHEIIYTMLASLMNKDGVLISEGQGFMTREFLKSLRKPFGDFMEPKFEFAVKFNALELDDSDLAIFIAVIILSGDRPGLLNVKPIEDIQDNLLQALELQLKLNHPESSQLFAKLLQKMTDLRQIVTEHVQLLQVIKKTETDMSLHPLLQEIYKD
# Assay Protocol: LBD-hPPARs transactivation assay (GAL4-luciferase reporter in COS-7 cells)
# Format: cell-based
# Experimental Parameters: 48 h
Readout: Functional activity PPARγ

Consider the following illustrative entries.
Molecule | Functional activity PPARγ
O=C(c1ccccc1)c1ccccc1N[C@@H](Cc1ccc(OCCCN(Cc2ccccc2)C(=O)Cc2cccnc2)cc1)C(=O)O [I_198] | PARTIAL AGONIST
Cc1cccc(N(CCCOc2ccc(C[C@H](Nc3ccccc3C(=O)c3ccccc3)C(=O)O)cc2)CC(C)C)c1 [I_410] | ANTAGONIST
O=C(c1ccccc1)c1ccccc1N[C@@H](Cc1ccc(OCCCN(Cc2ccccc2)CC2CC2)cc1)C(=O)O [I_418] | PARTIAL AGONIST
CCC(=O)N(CCOc1ccc(C[C@H](Nc2ccccc2C(=O)c2ccccc2)C(=O)O)cc1)c1ccc(Cl)cc1 [I_121] | ANTAGONIST
O=C(c1ccccc1)c1ccccc1N[C@@H](Cc1ccc(OCCN(CC2CC2)C(=O)C=Cc2cccs2)cc1)C(=O)O [I_265] | AGONIST
O=C(c1ccccc1)c1ccccc1N[C@@H](Cc1ccc(OCCCN(CC2CC2)C(=O)Cc2ccccc2)cc1)C(=O)O [I_262] | AGONIST

Consider the additional molecule presented here.
Data request: Record request: Functional activity PPARγ value, item CC(C)(C)N(CCOc1ccc(C[C@H](Nc2ccccc2C(=O)c2ccccc2)C(=O)O)cc1)C(=O)C1CCC1 [I_375]
Data returned: PARTIAL AGONIST
